Values were extracted from ChEMBL document CHEMBL3085696.

In this section we review reported IC50 values for a set of compounds.
# measured_on: Aurora kinase A (Homo sapiens)
# Sequence (O14965 whole entry): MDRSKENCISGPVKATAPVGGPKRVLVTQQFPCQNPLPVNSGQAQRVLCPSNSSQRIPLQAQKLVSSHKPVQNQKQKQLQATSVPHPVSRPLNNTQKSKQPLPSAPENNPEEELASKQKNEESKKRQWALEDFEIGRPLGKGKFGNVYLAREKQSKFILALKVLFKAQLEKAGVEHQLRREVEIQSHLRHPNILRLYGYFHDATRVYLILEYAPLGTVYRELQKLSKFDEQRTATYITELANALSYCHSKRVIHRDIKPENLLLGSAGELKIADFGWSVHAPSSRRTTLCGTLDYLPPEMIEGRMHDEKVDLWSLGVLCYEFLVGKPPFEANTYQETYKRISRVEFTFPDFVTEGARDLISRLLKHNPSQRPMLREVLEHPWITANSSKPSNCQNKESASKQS
# protocol_summary: Inhibition of autophosphorylation of N-terminal Myc tagged aurora-A at T288 in human HeLa cells after 2 hrs
# Format: cell-based
State just the number; it will be interpreted in nM.

Past entries and their recorded results:
Cc1nn(C)cc1-c1nc2c(Oc3ccc(C(=O)Nc4ccccc4)cc3)c(Cl)cnc2[nH]1    160
Cc1nn(C)cc1-c1nc2c(Oc3ccc(C(=O)Nc4cccnc4)cc3)c(Cl)cnc2[nH]1    280
Cc1nn(C)cc1-c1nc2ncc(Cl)c(Oc3ccc(C(=O)NC4CCC4)cc3)c2[nH]1    70

// next entry
Query string: Given the entry "Cc1nn(C)cc1-c1nc2ncc(Cl)c(Oc3ccc(C(=O)Nc4ccncc4)cc3)c2[nH]1" , report its measured IC50.
Result string: 580

====

Reported IC50 values for a set of compounds
# measured_on: Aurora kinase B (Homo sapiens, UniProt Q96GD4)
# Sequence (Q96GD4 whole entry): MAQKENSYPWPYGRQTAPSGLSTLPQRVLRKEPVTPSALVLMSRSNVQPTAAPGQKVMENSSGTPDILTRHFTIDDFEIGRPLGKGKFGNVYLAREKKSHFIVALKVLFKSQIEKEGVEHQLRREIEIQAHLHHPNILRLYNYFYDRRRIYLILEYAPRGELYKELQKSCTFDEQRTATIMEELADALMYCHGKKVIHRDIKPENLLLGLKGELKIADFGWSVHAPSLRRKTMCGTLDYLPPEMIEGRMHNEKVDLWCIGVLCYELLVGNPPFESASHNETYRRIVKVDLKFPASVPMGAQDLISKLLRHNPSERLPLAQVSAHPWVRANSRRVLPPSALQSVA
# protocol_summary: Inhibition of full-length aurora-B (unknown origin) using 5FAMLRRASLG-CONH2 as substrate after 60 mins

Cn1cc(-c2[nH]c3ncc(Cl)cc3c2-c2cccc(CNS(C)(=O)=O)c2)cn1    0.441 µM

Query string: Look up IC50: "Cc1nn(C)cc1-c1nc2c(Oc3ccc(C(=O)NCc4ccccc4)cc3)c(Cl)cnc2[nH]1"
Result string: 3.91 µM

Query string: What value of IC50 has been recorded for this entry: "Cc1nn(C)cc1-c1nc2c(Nc3ccc(C(=O)Nc4ccccc4)cc3)c(Cl)cnc2[nH]1"
Result string: 4.12 µM

Query string: Reported IC50 for "Cc1nn(C)cc1-c1nc2ncc(Cl)c(Oc3ccc(C(=O)Nc4ccncc4)cc3)c2[nH]1" : what is it?
Result string: 3.45 µM

Query string: Recorded IC50 of "COc1ccc(-c2[nH]c3ncc(Cl)cc3c2-c2cccc(CNC(C)=O)c2)cc1" , please.
Result string: 1.09 µM

====

# measured_on: Aurora kinase A (Homo sapiens, UniProt O14965, T217E)
# protocol_summary: Inhibition of autophosphorylation of aurora-A T217E mutant at T288 in human HCT116 cells after 2 hrs
# Assay type: cell-based, HCT-116
readout_kind: pIC50
When answering, recall that pIC50 equals minus log10 of the concentration in mol/L, and write that number alone.

Cc1nn(C)cc1-c1nc2c(Oc3ccc(C(=O)Nc4ccccc4)cc3)c(Cl)cnc2[nH]1    6.02

--- query ---
Query string: Identify the measured pIC50 of "Cc1nn(C)cc1-c1nc2ncc(Cl)c(Oc3ccc(C(=O)NC4CCC4)cc3)c2[nH]1" for Aurora kinase A (Homo sapiens, UniProt O14965, T217E).
Result string: 5.64
